Measured values drawn from a melting point compilation (Tetko et al.; mined from patent text by program, amines drawn as free bases though some values may be those of a salt) for this set.

readout kind: melting point

Look over these answered cases.
The reported value for CC(C)(C)OC(=O)N1CCN(CCc2ccc(Nc3ncc4c(n3)-c3ccccc3C(c3ccccc3C(F)(F)F)C4)cc2)CC1 (stereo not given) in terms of melting point is 234 to 235 °C

The value of melting point measured for the compound C=CCOc1ccc(-c2ccc(C#N)cc2)cc1 turned out to be 68 to 69 °C

Just so you know, measured melting point for CCOC(=O)C1=C(NC(=O)Nc2cc(C(=O)OC(C)C)c(F)cc2F)CCC1 came out at 149 to 151 °C

The recorded melting point for entry COc1ncnc(-c2cc([N+](=O)[O-])c(F)cc2F)c1Cl equals 84 to 88 °C

Reported melting point for N#CCCNC(=O)c1n[nH]cc1NC(=O)c1cccc(C(F)(F)F)c1 was 188 to 190 °C

Continuing:
CS(=O)(=O)Nc1ccc2[nH]ccc2c1 has a reported melting point of 133 to 135 °C

What the record says about C/C(=C\c1ccc(CO)cc1)c1ccc2c(c1)C(C)(C)CCO2 : melting point is 80 to 81 °C

Noted for CC(O)c1ccc(C2(C(C)(C)C)OCCO2)cc1 (stereo not given) : its melting point reads 67 to 70 °C

The recorded melting point for entry COC(=O)NC1=NCC(c2ccccc2)N1C (stereo not given) equals 145 to 147 °C

Note to self: melting point recorded for Cc1ccc(C(SCCN(C)CCCCN=C(NC#N)NCCSCc2csc(NC(=N)N)n2)c2ccccc2)cc1 (stereo not given) was 134 to 140 °C

Consider O=C1C2=C(CCCC2)C(=O)N1c1ccc(Cl)c2c1CC(CO)O2 (stereo not given) . Its measured melting point is 193 to 195 °C

According to the records, this compound Cc1oc2nc3c(c(N)c2c1C)C(=O)CCC3 displays melting point of 190 to 198 °C

Item: Cc1ccc(C#Cc2ccc(NC(=O)OC(C)(C)C)c([N+](=O)[O-])c2)cc1 | melting point: 164 to 165 °C

Consider CC(=O)Nc1ccc(-c2ccc3nc(-c4cccnc4N)n(-c4ccc(CNC(=O)c5ccccc5)cc4)c3n2)cc1 . Its measured melting point is 299 to 300 °C

The recorded melting point for entry CC(C)(C)C(O)c1ccc(C2(c3ccccc3)OCCO2)cc1 (stereo not given) equals 90 to 93 °C

Entry under test: CN1CCN(c2cc3nc(C(C)(C)C)sc3cc2N=C=O)CC1 . Its melting point was 124 to 126 °C

Documented melting point of CN1CCN(Cn2cncc2-c2cc3c(Nc4ccc5[nH]ccc5c4)c(C#N)cnc3s2)CC1 : > 245 °C

Looking up COc1ccc(NS(C)(=O)=O)cc1CN1CCC(=O)C(C(c2ccccc2)c2ccccc2)C1 (stereo not given) , I found its melting point recorded as 132 to 135 °C

// melting point value for N#CC(C(=O)Nc1ccc(F)cc1F)C(=O)c1ccc[nH]1 (stereo not given) : 169 to 171 °C

O=C(Oc1cc(-c2ccccc2)nc2ccccc12)N1CCOCC1 has a reported melting point of 127 °C

Just so you know, measured melting point for C=C(C)C1CCC2C3CC(=O)C4=CC(=O)CCC4(C)C3CCC12C (stereo not given) came out at 148 to 150 °C

So, Clc1ccc(N2CCN(Cc3ccc4[nH]ccc4c3)CC2)cc1 ? Its melting point was 175 to 176 °C

The compound identified as COc1ccc(-c2cc(=O)c3c(O)cc(O)c(-c4cc(-c5cc(=O)c6c(O)cc(OC)cc6o5)ccc4OC)c3o2)cc1 registered its melting point at 295 to 298 °C

// melting point value for COC(=O)CN1C(=S)C(C(C)C)Sc2ccccc21 (stereo not given) : 99 to 100 °C
